For each entry below, report its Ki value.
- measurementTarget: TcrNT2 (Trypanosoma cruzi, UniProt Q4DHG0)
- Sequence (Q4DHG0 entry or part of it): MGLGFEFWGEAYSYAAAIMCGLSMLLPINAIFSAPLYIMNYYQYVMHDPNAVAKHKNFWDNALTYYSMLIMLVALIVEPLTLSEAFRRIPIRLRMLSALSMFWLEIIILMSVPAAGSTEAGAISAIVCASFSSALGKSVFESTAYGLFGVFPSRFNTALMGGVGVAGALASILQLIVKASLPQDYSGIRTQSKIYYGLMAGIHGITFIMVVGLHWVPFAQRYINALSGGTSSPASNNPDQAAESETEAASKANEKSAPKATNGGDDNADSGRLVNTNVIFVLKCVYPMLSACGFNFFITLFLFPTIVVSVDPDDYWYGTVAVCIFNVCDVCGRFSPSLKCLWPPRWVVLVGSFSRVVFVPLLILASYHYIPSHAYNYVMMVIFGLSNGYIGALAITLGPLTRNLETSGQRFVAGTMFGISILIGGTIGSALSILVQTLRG
- assayRemarks: Transport of [^3H]-thymidine by TcrNT2 expressed in L. mexicana Cas9^ΔNT1 (Km, inhibition)
- Format: cell-based
- measurementParameters: read-out: Ki on the transport of [^3H]-thymidine by TcrNT2
Reply numerically in µM, unit not repeated.

# input Please give the documented Ki of `O=c1[nH]c(=O)n([C@H]2C[C@H](O)[C@@H](CO)O2)cc1F`
# output 1.5

# input Tell me measured Ki for `O=c1ccn([C@H]2C[C@H](O)[C@@H](CO)O2)c(=O)[nH]1` please.
# output 1.31

# input Give the reported value of Ki for this record: `Cc1cn([C@H]2C[C@H](O)[C@@H](C)O2)c(=O)[nH]c1=O`
# output 2.2

# input Return the recorded Ki value; entry: `Cc1cn([C@@H]2O[C@H](CO)[C@@H](O)[C@H]2O)c(=O)[nH]c1=O`
# output 28

----------
- measurementTarget: TcrNT2 (Trypanosoma cruzi)
- assayRemarks: Transport of [^3H]-thymidine by TcrNT2 expressed in L. mexicana Cas9^ΔNT1 (Km, inhibition)
- Type: cell-based
- measurementParameters: read-out: Ki on the transport of [^3H]-thymidine by TcrNT2
Give measured Ki for each item. Keep answers brief.
Enter your answer as a number in µM; do not include the unit.

# input Give Ki for `Cc1cn([C@H]2C[C@H](O)[C@@H](CO)O2)c(=O)[nH]c1=S`
# output 2.79

# input State, in one line, measured Ki of `Cc1cn([C@H]2CC[C@@H](CO)O2)c(=O)[nH]c1=O`
# output 322

# input For the compound `C[C@H]1O[C@@H](n2ccc(=O)[nH]c2=O)[C@H](O)[C@@H]1O` , report Ki.
# output 1020

# input Return the recorded Ki value; entry: `O=c1ccn([C@@H]2O[C@H](CO)[C@@H](O)[C@H]2O)c(=O)[nH]1`
# output 172

----------
Kindly supply the reported EC50 values for the records listed here.
- Test system: L. mexicana Cas9 promastigotes
- assayRemarks: Alamar blue drug sensitivity assay, L. mexicana Cas9 promastigotes
- Assay type: cell-based, Leishmania mexicana
- measurementParameters: Leishmania mexicana, 120 h, 72 h + 48 h resazurin, at least 3 independent determinations, read-out: EC50 (µM) AVG ± SEM, Cas9

# input Name the recorded EC50 of the molecule listed here: `Nc1ncnc2c1c(-c1ccc(Cl)c(Cl)c1)cn2[C@@H]1O[C@H](CO)C[C@H]1O`
# output ~100 µM

# input // fetch EC50 given entry `CNc1ncnc2c1ccn2[C@@H]1O[C@H](CO)[C@@H](O)[C@H]1O`
# output > 100 µM

# input Return the recorded EC50 value; entry: `Cc1ncnc2c1c(-c1ccc(Cl)cc1)cn2[C@@H]1O[C@H](CO)[C@@H](O)[C@H]1O`
# output ~100 µM

# input Provide EC50 value for the following molecule: `Nc1ncnc2c1c(I)cn2[C@@H]1O[C@H](CO)[C@@H](F)[C@H]1O`
# output ~100 µM

# input Provide one value: measured EC50 of `Nc1ncnc2c1c(-c1ccccc1)cn2[C@@H]1O[C@H](CO)C[C@H]1O`
# output > 500 µM

----------
- measurementTarget: TcrNT2 (Trypanosoma cruzi)
- assayRemarks: Transport of [^3H]-thymidine by TcrNT2 expressed in L. mexicana Cas9^ΔNT1 (Km, inhibition)
- Assay type: cell-based
- measurementParameters: calculated from Km or Ki at 25 °C
measurementName: ΔG° (Gibbs free energy of interaction)

# input Using known records, supply ΔG° (Gibbs free energy of interaction) for `Cc1cn([C@H]2C[C@H](O)[C@@H](CO)O2)c(=O)[nH]c1=O`
# output -8.96 kcal/mol

# input Answer with reported ΔG° (Gibbs free energy of interaction) of `Cc1cn([C@H]2C[C@H](O)[C@@H](C)O2)c(=O)[nH]c1=O`
# output -7.72 kcal/mol

# input Fill in ΔG° (Gibbs free energy of interaction) for record `Nc1ncnc2c1c(Br)cn2[C@@H]1O[C@H](CO)[C@@H](O)[C@H]1O`
# output -4.73 kcal/mol

# input Identify measured ΔG° (Gibbs free energy of interaction) associated with `Cc1cn([C@H]2C[C@H](O)[C@@H](CO)O2)c(=O)[nH]c1=S`
# output -7.58 kcal/mol

# input Identify measured ΔG° (Gibbs free energy of interaction) corresponding to `O=c1[nH]c(=O)n([C@H]2C[C@H](O)[C@@H](CO)O2)cc1F`
# output -7.93 kcal/mol

# input Item `Cc1cn([C@@H]2O[C@H](CO)[C@@H](O)[C@H]2O)c(=O)[nH]c1=O` : provide ΔG° (Gibbs free energy of interaction)
# output -6.21 kcal/mol
